For each entry below, report its Ki value.
Write the numeric value and append its unit.

Query string: Find the measured Ki: item O=c1ncccn1[C@H]1C[C@H](O)[C@@H](CO)O1 , target or system human CDA (Homo sapiens).
Result string: 10.7 µM

Query string: Form field: Ki recorded for O=C1NCC=CCN1[C@H]1C[C@H](O)[C@@H](CO)O1 with human CDA (Homo sapiens) (enter value)
Result string: 0.43 µM

* * *

# Measurement Target: A3A-E72A (Homo sapiens, UniProt P31941, E72A)
# Sequence (P31941 whole entry E72A): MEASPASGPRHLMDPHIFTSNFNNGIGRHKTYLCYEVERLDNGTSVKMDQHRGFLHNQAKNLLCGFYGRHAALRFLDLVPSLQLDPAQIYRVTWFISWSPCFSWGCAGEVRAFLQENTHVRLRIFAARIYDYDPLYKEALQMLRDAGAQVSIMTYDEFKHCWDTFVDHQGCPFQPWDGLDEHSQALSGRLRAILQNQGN
# Protocol Text: Isothermal titration calorimetry (ITC), binding to A3A-E72A
# Assay Context: ITC buffer 2* (freshly prepared buffer 2), 25° C
Metric Name: pKd
Recall that pKd is obtained by taking minus log10 of the concentration measured in molar.

Query string: Report pKd for ATTTCATTT [5′-AT3dCAT3] tested on A3A-E72A (Homo sapiens, UniProt P31941, E72A).
Result string: 6.89

Reference source: patent US20240140983A1
